# Test system: Mycobacterium tuberculosis H37Rv
# Run description: MIC and MBC by broth microdilution against M. tuberculosis H37Rv
# Type: cell-based, Mycobacterium tuberculosis H37Rv (ATCC 27294)
# Condition label: Mycobacterium tuberculosis, H37RV, M. tuberculosis H37Rv; Table 3
log10 of MBC listing for selected compounds.
# values: log10(MBC), units µg/mL

Example compounds with recorded log10 of MBC:
| Compound | Tested system | Measured quantity | Meas value |
| --- | --- | --- | --- |
| CCCCCCCCCCCCNC(=O)c1cc([N+](=O)[O-])cc([N+](=O)[O-])c1 [Compound 7e, N-dodecyl-3.5-dinitrobenzamide] | Mycobacterium tuberculosis H37Rv | log10 of MBC | -0.30 |
| CCCCCCCCNC(=O)c1cc([N+](=O)[O-])cc([N+](=O)[O-])c1 [Compound 7c, N-octyl-3.5-dinitrobenzamide] | Mycobacterium tuberculosis H37Rv | log10 of MBC | -1.80 |
| CCCCCCCCCCCCOC(=O)c1ccc([N+](=O)[O-])cc1 | Mycobacterium tuberculosis H37Rv | log10 of MBC | 1.81 |
| CCCCCCCCCCCCCCNC(=O)c1cc([N+](=O)[O-])cc([N+](=O)[O-])c1 [Compound 7f, N-tetradecyl-3.5-dinitrobenzamide] | Mycobacterium tuberculosis H37Rv | log10 of MBC | -0.60 |
| CCCCCCOC(=O)c1ccc([N+](=O)[O-])cc1 | Mycobacterium tuberculosis H37Rv | log10 of MBC | 2.11 |

INPUT: Record lookup: for Mycobacterium tuberculosis H37Rv, what log10 of MBC belongs to `CCCCOC(=O)c1ccc([N+](=O)[O-])cc1` ?
OUTPUT: 2.11

INPUT: Thanks! And CCCCCCNC(=O)c1cc([N+](=O)[O-])cc([N+](=O)[O-])c1 [Compound 7b, N-hexyl-3.5-dinitrobenzamide] ?
OUTPUT: -1.51

INPUT: Thanks! And CCCCCCCCCCNC(=O)c1cc([N+](=O)[O-])cc([N+](=O)[O-])c1 [Compound 7d, N-decyl-3.5-dinitrobenzamide] ?
OUTPUT: -1.20

====

# Tested on: Mycobacterium smegmatis homogenate
# Run description: Stability in Mycobacterium smegmatis homogenate (enzymatic hydrolysis)
# Condition label: Mycobacterium smegmatis homogenate, 37°C; 48h
Degradation (%) 48h listing for selected compounds.
Numbers only; they are read as %.

Example compounds with recorded Degradation (%) 48h:
| Compound | Measured quantity | Meas value |
| --- | --- | --- |
| CCCCCCCCCCNC(=O)c1cc([N+](=O)[O-])cc([N+](=O)[O-])c1 [Compound 7d, N-decyl-3.5-dinitrobenzamide] | Degradation (%) 48h | 2 |
| CCCCOC(=O)c1ccc([N+](=O)[O-])cc1 [Compound 2a] | Degradation (%) 48h | 100 |
| CCCCCCCCCCCCOC(=O)c1cc([N+](=O)[O-])cc(C(F)(F)F)c1 [Compound 4e] | Degradation (%) 48h | 6 |

With those in mind, consider the next compound.
INPUT: Record request: Degradation (%) 48h value, item CCCCCCNC(=O)c1cc([N+](=O)[O-])cc([N+](=O)[O-])c1 [Compound 7b, N-hexyl-3.5-dinitrobenzamide]
OUTPUT: 33

====

# Run description: Chemical stability in phosphate buffer pH 7.4
# Condition label: 332h
Measured quantity: Degradation (%) 332h
Numbers only; they are read as %.

Example compounds with recorded Degradation (%) 332h:
| Compound | Degradation (%) 332h |
| --- | --- |
| CCCCOC(=O)c1cc([N+](=O)[O-])cc(C(F)(F)F)c1 | 60 |
| CCCCOC(=O)c1cc([N+](=O)[O-])cc([N+](=O)[O-])c1 | 65 |
| CCCCCCCCNC(=O)c1ccc([N+](=O)[O-])cc1 [Compound 6c, N-octyl-4-nitrobenzamide] | 0 |

INPUT: Record request: Degradation (%) 332h value, item CCCCCCCCCCCCNC(=O)c1ccc([N+](=O)[O-])cc1 [Compound 6e, N-dodecyl-4-nitrobenzamide]
OUTPUT: 0

INPUT: Thanks! And CCCCCCCCNC(=O)c1ccccc1 [Compound 5c, N-octyl-benzamide] ?
OUTPUT: 0

INPUT: Thanks! And `CCCCCCCCOC(=O)c1cc([N+](=O)[O-])cc(C(F)(F)F)c1` ?
OUTPUT: 6

====

MBC listing for selected molecules.
# System: Mycobacterium tuberculosis H37Rv
# Run description: MIC and MBC by broth microdilution against M. tuberculosis H37Rv
# Assay type: cell-based, Mycobacterium tuberculosis H37Rv (ATCC 27294)
# Condition label: Mycobacterium tuberculosis, H37RV, M. tuberculosis H37Rv; Table 3; read-out: MBC
Numbers only; they are read as µg/mL.

| Molecule | Uom | Meas value |
| --- | --- | --- |
| CCCCCCNC(=O)c1ccccc1 [Compound 5b, N-hexyl-benzamide] | µg/mL | 64 |

INPUT: Record request: MBC value, item `CCCCCCCCCCCCNC(=O)c1cc([N+](=O)[O-])cc(C(F)(F)F)c1`
OUTPUT: 0.5

INPUT: Thanks! And CCCCCCNC(=O)c1ccc([N+](=O)[O-])cc1 [Compound 6b, N-hexyl-4-nitrobenzamide] ?
OUTPUT: 64

INPUT: Thanks! And CCCCCCCCOC(=O)c1ccc([N+](=O)[O-])cc1 [Compound 2c, Octyl 4-nitrobenzoate] ?
OUTPUT: 128

====

# Tested on: Mycobacterium smegmatis homogenate
# Run description: Stability in Mycobacterium smegmatis homogenate (enzymatic hydrolysis)
# Condition label: Mycobacterium smegmatis homogenate, 37°C; 24h
Measured quantity: Degradation (%) 24h
Numbers only; they are read as %.

INPUT: Record lookup: for Mycobacterium smegmatis homogenate, what Degradation (%) 24h belongs to CCCCCCCCCCCCNC(=O)c1ccccc1 [Compound 5e, N-dodecyl-benzamide] ?
OUTPUT: 0

INPUT: Thanks! And CCCCCCCCCCCCNC(=O)c1ccc([N+](=O)[O-])cc1 [Compound 6e, N-dodecyl-4-nitrobenzamide] ?
OUTPUT: 2

INPUT: Thanks! And CCCCCCNC(=O)c1cc([N+](=O)[O-])cc([N+](=O)[O-])c1 [Compound 7b, N-hexyl-3.5-dinitrobenzamide] ?
OUTPUT: 18

====

# Run description: Chemical stability in phosphate buffer pH 7.4
# Condition label: 72h
Measured quantity: Degradation (%) 72h
Numbers only; they are read as %.

| Compound | Degradation (%) 72h |
| --- | --- |
| CCCCCCCCOC(=O)c1cc([N+](=O)[O-])cc(C(F)(F)F)c1 | 1 |
| CCCCCCCCCCCCNC(=O)c1ccccc1 [Compound 5e, N-dodecyl-benzamide] | 0 |
| CCCCCCCCOC(=O)c1cc([N+](=O)[O-])cc([N+](=O)[O-])c1 | 1 |
| CCCCCCCCOC(=O)c1ccccc1 [Compound 1c, Octyl benzoate] | 0 |
| CCCCCCCCCCCCOC(=O)c1cc([N+](=O)[O-])cc([N+](=O)[O-])c1 | 1 |
| CCCCCCCCCCCCNC(=O)c1ccc([N+](=O)[O-])cc1 [Compound 6e, N-dodecyl-4-nitrobenzamide] | 0 |
| CCCCCCCCOC(=O)c1ccc([N+](=O)[O-])cc1 [Compound 2c, Octyl 4-nitrobenzoate] | 1 |

With those in mind, consider the next compound.
INPUT: Record request: Degradation (%) 72h value, item CCCCNC(=O)c1ccccc1 [Compound 5a, N-butyl-benzamide]
OUTPUT: 0

====

# Run description: Stability in human plasma (enzymatic hydrolysis)
# Condition label: 72h
Where Degradation (%) 72h equals or exceeds 60%, the correct label is t; where it does not, the label is f.

Field: example entries. Status: answers known.
| Molecule | Assigned category |
| --- | --- |
| CCCCNC(=O)c1cc([N+](=O)[O-])cc(C(F)(F)F)c1 [Compound 8a] | f |
| CCCCCCOC(=O)c1cc([N+](=O)[O-])cc([N+](=O)[O-])c1 [Compound 3b] | t |

INPUT: Given CCCCCCCCCCCCNC(=O)c1ccc([N+](=O)[O-])cc1 [Compound 6e, N-dodecyl-4-nitrobenzamide] , state whether its Degradation (%) 72h is at least 60%.
OUTPUT: f

INPUT: Thanks! And CCCCCCCCOC(=O)c1cc([N+](=O)[O-])cc([N+](=O)[O-])c1 [Compound 3c] ?
OUTPUT: t

INPUT: Thanks! And CCCCOC(=O)c1ccccc1 [Compound 1a, Butyl benzoate] ?
OUTPUT: t

====

# Run description: Chemical stability in phosphate buffer pH 7.4
# Condition label: 24h
Measured quantity: Degradation (%) 24h
Numbers only; they are read as %.

Example compounds with recorded Degradation (%) 24h:
| Compound | Uom | Degradation (%) 24h |
| --- | --- | --- |
| CCCCCCCCNC(=O)c1ccc([N+](=O)[O-])cc1 [Compound 6c, N-octyl-4-nitrobenzamide] | % | 0 |
| CCCCOC(=O)c1cc([N+](=O)[O-])cc(C(F)(F)F)c1 [Compound 4a] | % | 5 |
| CCCCCCCCCCCCOC(=O)c1cc([N+](=O)[O-])cc([N+](=O)[O-])c1 [Compound 3e] | % | 0 |

INPUT: Record request: Degradation (%) 24h value, item CCCCOC(=O)c1ccccc1 [Compound 1a, Butyl benzoate]
OUTPUT: 0

INPUT: Thanks! And CCCCNC(=O)c1cc([N+](=O)[O-])cc(C(F)(F)F)c1 [Compound 8a] ?
OUTPUT: 0
